- Assay: Inhibition of 20s proteasome subunit beta-1c in human RPMI8226 cells using BODIPY-NC001 by fluorescent densitometry
- Type: cell-based
- Recorded conditions: rpmi-8226
Observation type: IC50

Example cases with answers are listed next.
* CC1=C(C(=O)N[C@H](C)C(=O)N[C@@H](Cc2c[nH]c3ccccc23)C(=O)N[C@H](/C=C/S(C)(=O)=O)Cc2ccccc2)Cc2ccccc21 | > 100 µM
* CC1=C(C(=O)N[C@H](C)C(=O)N[C@@H](Cc2c[nH]c3ccccc23)C(=O)N[C@@H](Cc2ccccc2)C(=O)[C@@]2(C)CO2)Cc2ccccc21 | > 100 µM
* COc1ccc(C[C@H](NC(=O)[C@H](C)NC(=O)CN2CCOCC2)C(=O)N[C@@H](Cc2ccccc2)C(=O)[C@@]2(C)CO2)cc1 | > 5 µM
* CC1=C(C(=O)N[C@H](C)C(=O)N[C@@H](Cc2c[nH]c3ccccc23)C(=O)N[C@@H](CC2CCCCC2)C(=O)[C@@]2(C)CO2)Cc2ccccc21 | > 100 µM

Reported IC50 ( `CCCC[C@H](NC(=O)[C@@H]1CCCN1C(=O)[C@H](C)NC(=O)CN=[N+]=[N-])C(=O)N[C@@H](CC(C)C)C(=O)[C@@]1(C)CO1` ) = 0.37 µM

Reported IC50 ( `COc1ccc(C[C@H](NC(=O)[C@@H](C)NC(=O)C2=C(C)c3ccccc3C2)C(=O)N[C@@H](CC2CCCCC2)C(=O)[C@@]2(C)CO2)cc1` ) = > 100 µM

Reported IC50 ( `C[C@@H](NC(=O)CN1CCOCC1)C(=O)N[C@@H](Cc1c[nH]c2ccccc12)C(=O)N[C@@H](CC1CCCCC1)C(=O)[C@@]1(C)CO1` ) = > 10 µM

Reported IC50 ( `CCCC[C@H](NC(=O)[C@@H]1CC(F)(F)CN1C(=O)[C@H](C)NC(=O)CN=[N+]=[N-])C(=O)N[C@@H](CC1CCCCC1)C(=O)[C@@]1(C)CO1` ) = 47 µM

====

- Assay system: Proteasome subunit beta type-9 (Homo sapiens, UniProt P28065)
- Sequence (P28065 whole entry): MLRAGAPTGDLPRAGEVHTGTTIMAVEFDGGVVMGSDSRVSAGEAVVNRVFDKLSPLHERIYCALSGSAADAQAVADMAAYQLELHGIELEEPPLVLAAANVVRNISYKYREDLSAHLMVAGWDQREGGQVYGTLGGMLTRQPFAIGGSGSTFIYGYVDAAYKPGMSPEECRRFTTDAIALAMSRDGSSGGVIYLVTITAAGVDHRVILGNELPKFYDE
- Assay: Inhibition of proteasome subunit beta-1i in human Raji cells using BODIPY- epoxomicin by fluorescent densitometry
- Format: cell-based
Could you mark each record class 1 if its IC50 falls strictly under 70 nM, and class 0 if it equals or exceeds it?

Consider the worked cases shown below.
- CCCC[C@H](NC(=O)[C@@H]1C[C@H](F)CN1C(=O)[C@H](C)NC(=O)CN=[N+]=[N-])C(=O)N[C@@H](CC(C)C)C(=O)[C@@]1(C)CO1: class 0
- CCCC[C@H](NC(=O)[C@@H]1CCN1C(=O)[C@H](C)NC(=O)CN=[N+]=[N-])C(=O)N[C@@H](CC(C)C)C(=O)[C@@]1(C)CO1: class 0
- CCCC[C@H](NC(=O)[C@@H]1CC(F)(F)CN1C(=O)[C@H](C)NC(=O)CN=[N+]=[N-])C(=O)N[C@@H](CC(C)C)C(=O)[C@@]1(C)CO1: class 1
- CCCC[C@H](NC(=O)[C@@H]1C[C@@H](O)CN1C(=O)[C@H](C)NC(=O)CN=[N+]=[N-])C(=O)N[C@@H](CC(C)C)C(=O)[C@@]1(C)CO1: class 0

Now for another entry.
Query string: Just wondering, is IC50 of `CCCC[C@H](NC(=O)[C@@H]1CCCN1C(=O)[C@H](C)NC(=O)CN=[N+]=[N-])C(=O)N[C@@H](Cc1ccccc1)C(=O)[C@@]1(C)CO1` below 70 nM?
Result string: class 1
